Attribution: the supplement of paper PMC12340641

Target: IKZF1 (dCK*-IKZF1 fusion in HEK293FT)
Experiment: inhibition of IKZF1 HTRF signal (DMSO = 0%, pomalidomide 10 uM = 100%); higher = lower IKZF1 protein level
Conditions: compound concentration: 5 uM, overnight (~20 h)
Endpoint Label: inhibition of IKZF1 HTRF signal (%)
Give just the numeric value; % need not be written.

Some solved entries appear below for comparison.
Compound	Unit Descriptor	inhibition of IKZF1 HTRF signal
O=[N+]([O-])c1cc(O)c(O)c([N+](=O)[O-])c1	%	-33.8
O=c1[nH]c2ccccc2n1C1CCN(CCCC(c2ccc(F)cc2)c2ccc(F)cc2)CC1	%	-18.9
CC[C@H]1CN2CCc3cc(OC)c(OC)cc3C2C[C@@H]1CC1NCCc2cc(OC)c(OC)cc21 (some centres not stated)	%	38.3
O=c1[nH]c2ccccc2n1C1CCN(CCCC(c2ccc(F)cc2)c2ccc(F)cc2)CC1 [Pimozide]	%	-27.8
Fc1ccc(C(OCCN2CCN(C/C=C/c3ccccc3)CC2)c2ccc(F)cc2)cc1	%	-25.2

Supply reported inhibition of IKZF1 HTRF signal belonging to this compound: C=C1[C@@H](C)[C@H]2[C@H](Cc3ccccc3)NC(=O)[C@]23OC(=O)/C=C/[C@H](O)CCC[C@@H](C)C/C=C/[C@H]3[C@@H]1O
32.2

Supply reported inhibition of IKZF1 HTRF signal belonging to this compound: O=c1c2ccccc2[se]n1-c1ccccc1
-37.8

Supply reported inhibition of IKZF1 HTRF signal belonging to this compound: COC(=O)[C@@]12OC[C@]34[C@H]([C@@H](O)[C@@H]1O)[C@@]1(C)CC(=O)C(O)=C(C)[C@@H]1C[C@H]3OC(=O)[C@H](OC(=O)/C=C(\C)C(C)C)[C@@H]24 [Bruceantin]
43.7

Supply reported inhibition of IKZF1 HTRF signal belonging to this compound: CCO[C@H]1O[C@@H]2O[C@@]3(C)CC[C@H]4[C@H](C)CC[C@@H]([C@H]1C)[C@@]24OO3
21.4

Supply reported inhibition of IKZF1 HTRF signal belonging to this compound: Oc1c(I)cc(I)cc1I
11

Supply reported inhibition of IKZF1 HTRF signal belonging to this compound: N=C(Nc1ccccc1)Nc1ccccc1
-55.9

Supply reported inhibition of IKZF1 HTRF signal belonging to this compound: CC[C@@H](C(=O)O)C1CC[C@H](C)C([C@@H](C)[C@H](O)[C@H](C)C(=O)[C@H](CC)C2O[C@]3(C=C[C@@H](O)[C@]4(CC[C@@](C)(C5CC[C@](O)(CC)[C@H](C)O5)O4)O3)[C@H](C)C[C@@H]2C)O1 (some centres not stated)
-5.47
